Value source: ChEMBL document CHEMBL3885861

- Species: Rattus norvegicus
- ASSAY_METHOD_TEXT: Open TG-GATES - Regimen: Single
- Format: toxicity, organism-based, Sprague-Dawley
- Parameters: regimen Single, gender Male, age 6 weeks
- CONDITIONS_USED: in vivo, po, 100 mg/kg, 6 h, tissue Plasma, route gavage, dose level Low
The threshold is inclusive: GLC of exactly 200 mg/dL counts as fulfilled; values below receive not fulfilled.

{"columns": ["GIVEN_SMILES", "ASSIGNED_LABEL"],
 "data": [
  ["COC(=O)C1=C(C)NC(C)=C(C(=O)OC)C1c1ccccc1[N+](=O)[O-]", "fulfilled"],
  ["Cc1nnc2n1-c1ccc(Cl)cc1C(c1ccccc1Cl)=NC2", "not fulfilled"],
  ["O=C(OC[C@H]1O[C@@H](OC(=O)c2cc(O)c(O)c(OC(=O)c3cc(O)c(O)c(O)c3)c2)[C@H](OC(=O)c2cc(O)c(O)c(OC(=O)c3cc(O)c(O)c(O)c3)c2)[C@@H](OC(=O)c2cc(O)c(O)c(OC(=O)c3cc(O)c(O)c(O)c3)c2)[C@@H]1OC(=O)c1cc(O)c(O)c(OC(=O)c2cc(O)c(O)c(O)c2)c1)c1cc(O)c(O)c(OC(=O)c2cc(O)c(O)c(O)c2)c1", "not fulfilled"]
]}
